Biological target: Shiga toxin 1 (Stx1) (Escherichia coli O157:H7) (UniProt P08026)
Sequence (P08026 23-315): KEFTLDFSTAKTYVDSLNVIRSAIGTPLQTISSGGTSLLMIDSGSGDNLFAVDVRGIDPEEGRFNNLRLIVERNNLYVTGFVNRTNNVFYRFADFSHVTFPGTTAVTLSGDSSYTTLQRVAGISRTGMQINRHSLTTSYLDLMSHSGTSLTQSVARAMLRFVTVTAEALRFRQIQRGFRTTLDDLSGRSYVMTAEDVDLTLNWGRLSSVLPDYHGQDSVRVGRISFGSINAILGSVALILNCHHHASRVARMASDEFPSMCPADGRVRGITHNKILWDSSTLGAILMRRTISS
Assay: cell-based or functional assay
Catalogue of IC50, Vero cell neutralization assay readings, one per entry.

Binder	IC50, Vero cell neutralization assay
Stx2-G9 (VHH) VHH: QVQLVESGGGLVQPGGSLTLSCTASGFTLNSYKIGWFRQAPGKEREGVSCINSGGNLRSVEGRFTISRDNTKNTVSLHMDSLKPEDTGVYHCAAAPALNVFSPCVLAPRYDYWGQGTQVTVSS	> 1000 nM
Stx2-G1 (VHH) VHH: QVQLVESGGGLVQPGESLRLSCVASASTFSTSLMGWVRQAPGKGLESVAEVRTTGGTFYAKSVAGRFTISRDNAKNTLYLQMNSLKAEDTGVYYCTAGAGPIATRYRGQGTQVTVSS	> 1000 nM
G1/D10 heterodimer VNA (designed binder) QVQLVESGGGLVQPGESLRLSCVASASTFSTSLMGWVRQAPGKGLESVAEVRTTGGTFYAKSVAGRFTISRDNAKNTLYLQMNSLKAEDTGVYYCTAGAGPIATRYRGQGTQVTVSSAHHSEDPGGGGSGGGGSGGGGSQVQLVETGGLVQAGGSLRLSCAASGVPFSDYTMAWFRQAPGKEREVVARITWRGGGPYYGNSGNGRFAISRDIAKSMVYLHMDSLKPEDTAVYYCAASRLRPALASMASDYDYWGQGTQVSVSSEPKTPKPQ	> 100 nM
Stx1-D4 (VHH) VHH: QVQLVESGGGLVQAGGSLRLSCAASGRINGDYAMGWFRQAPGEEREFVAVNSWIGGSTYYTDSVKGRFTLSRDNAKNTLSLQMNSLKPEDTAVYYCAAGHYTDFPTYFKEYDYWGQGTQVTVSS	> 1000 nM
Stx-A4 (VHH) VHH: QVQLVESGGGLVQPGGSLRLSCAASGFTLGSYHIGWFRHPPGKEREGTSCLSSRGDYTKYAEAVKGRFTISRDNTKSTVYLQMNNLKPEDTGIYVCAAIRPVLSDSHCTLAARYNYWGQGTQVTVSS	> 330 nM
A9/D4 heterodimer VNA (designed binder) QVQLVETGGGLAQAGDSLRLSCVEPGRTLDMYAMGWIRQAPGEEREFVASISGVGGSPRYADSVKGRFTISKDNTKSTIWLQMNSLKPEDTAVYYCAAGGDIYYGGSPQWRGQGTRVTVSSEPKTPKPQGGGGSGGGGSGGGGSQVQLVESGGGLVQAGGSLRLSCAASGRINGDYAMGWFRQAPGEEREFVAVNSWIGGSTYYTDSVKGRFTLSRDNAKNTLSLQMNSLKPEDTAVYYCAAGHYTDFPTYFKEYDYWGQGTQVTVSSEPKTPKPQ	1 nM
Stx-A5 (VHH) VHH: QVQLVESGGGLVQPGGSLRLSCAALEFTLEDYAIAWFRQAPGKEREGVSCISKSGVTKYTDSVKGRFTVARDNAKSTVILQMNNLRPEDTAVYNCAAVRPVFVDSVCTLATRYTYWGEGTQVTVSS	100 nM
Stx2-H6 (VHH) VHH: QVQLVETGGGLVQPGGSLRLSCAASGFSLDPYVIGWFRQAPGKEREGVSCITSRAASRTSVDSVNERFTISRDNAKNTVDLHINNLKPEDSGVYYCAAVPPAKLPLFSLCRSLPAKYDYWGQGTQVTVSS	> 1000 nM
